Data credit: patent US20080138291A1

TARGET ENTITY: UniProt:P00915
Sequence (P00915 whole entry): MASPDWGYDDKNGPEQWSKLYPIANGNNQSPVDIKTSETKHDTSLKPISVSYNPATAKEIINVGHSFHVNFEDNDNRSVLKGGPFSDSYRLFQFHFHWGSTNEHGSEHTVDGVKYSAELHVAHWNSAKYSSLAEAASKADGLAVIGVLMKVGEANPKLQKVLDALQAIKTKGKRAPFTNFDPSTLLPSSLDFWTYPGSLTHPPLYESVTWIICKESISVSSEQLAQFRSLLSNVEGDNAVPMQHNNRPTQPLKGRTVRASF
METHOD DESCRIPTION: CA inhibition, CO2 hydration method, isozyme I
Type: biochemical
EXPERIMENTAL PARAMETERS: Table 1, human cloned isozyme, read-out: KI hCA I
PARAMETER: Ki (µM)

> print(dat)
                      smiles.representation   target.entity  parameter  experimental.result
1  NS(=O)(=O)c1ccc(NC(=S)Nc2ccc(-c3c4ccc(=O)cc-4oc4cc(O)ccc34)c(C(=O)O)c2)c(I)c1  UniProt:P00915         Ki                 1.07

(A) NS(=O)(=O)c1ccc(CNC(=S)Nc2ccc(-c3c4ccc(=O)cc-4oc4cc(O)ccc34)c(C(=O)O)c2)cc1
(B) NS(=O)(=O)c1nnc(NS(=O)(=O)c2ccc(NC(=S)Nc3ccc(-c4c5ccc(=O)cc-5oc5cc(O)ccc45)c(C(=O)O)c3)cc2)s1
// which entry has the larger Ki value, A or B ? Give the label under which the chosen entry appears.
A
